Test: self-splicing fitness, log relative to wild type (ln ratio); higher = more splicing; Tetrahymena group I intron in knt gene, E. coli kanamycin selection, DiMSum; sequences stand for … in CUCUCU…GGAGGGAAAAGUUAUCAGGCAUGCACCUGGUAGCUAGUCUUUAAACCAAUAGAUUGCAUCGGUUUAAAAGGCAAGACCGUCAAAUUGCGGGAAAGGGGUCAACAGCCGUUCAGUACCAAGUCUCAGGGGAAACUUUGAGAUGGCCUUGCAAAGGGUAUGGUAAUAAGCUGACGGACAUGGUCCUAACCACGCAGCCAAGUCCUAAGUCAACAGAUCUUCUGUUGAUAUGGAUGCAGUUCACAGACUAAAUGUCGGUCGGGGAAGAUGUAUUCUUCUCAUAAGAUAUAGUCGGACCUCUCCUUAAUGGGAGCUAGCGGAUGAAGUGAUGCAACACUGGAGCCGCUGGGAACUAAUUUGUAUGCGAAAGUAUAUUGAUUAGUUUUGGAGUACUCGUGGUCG;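 further: selection with 25 µg/mL kanamycin versus none on LB agar overnight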
Conditions: 37 °C
measurement.type: self-splicing fitness (ln)

>>> observed_value("GGAAAGCAAUAUUACGUGCC")
-2.01
>>> observed_value("UGUAAGCAAUAUUACGACGC")
-1.61
>>> observed_value("CUCUAGCAAUAUUACGUAAA")
-0.971
>>> observed_value("CCUGAGCAAUAUUACGGUAA")
-3.55
>>> observed_value("UGGCAGCAAUAUUACGGGUC")
-1.28
>>> observed_value("UUAUAGCAAUAUUACGUCGA")
-0.308
>>> observed_value("UUGAAGCAAUAUUACGUUCC")
-2.79
>>> observed_value("CACAAGCAAUAUUACGAAUG")
-1.2
>>> observed_value("GAUGAGCAAUAUUACGAGUA")
-1.92
>>> observed_value("AUCGAGCAAUAUUACGAGAA")
-2.44
>>> observed_value("UAAGAGCAAUAUUACGGCUC")
-1.32
>>> observed_value("AUUUAGCAAUAUUACGGUCC")
-0.126
>>> observed_value("AUGCAGCAAUAUUACGUGGC")
-2.53
>>> observed_value("GUGUAGCAAUAUUACGUAUU")
-2.82
>>> observed_value("UGUAAGCAAUAUUACGUCCG")
0.473
>>> observed_value("CUUGAGCAAUAUUACGAAGA")
-3.17
>>> observed_value("UGAUAGCAAUAUUACGCCCC")
-0.875
>>> observed_value("UCCAAGCAAUAUUACGUUUC")
-2.76
>>> observed_value("AGUUAGCAAUAUUACGUACU")
-0.298
>>> observed_value("GCUGAGCAAUAUUACGGGAU")
-1.34
>>> observed_value("UGUUAGCAAUAUUACGUUAG")
-1.26
>>> observed_value("GCUAAGCAAUAUUACGCCAA")
-1.74
>>> observed_value("CCCGAGCAAUAUUACGUGUG")
-1.86
>>> observed_value("AUAGAGCAAUAUUACGAGUG")
-0.0938
>>> observed_value("UGUUAGCAAUAUUACGGUGC")
-2.88
>>> observed_value("AUGGAGCAAUAUUACGGGUA")
-3.06
>>> observed_value("CGCCAGCAAUAUUACGCGGU")
-3.3
>>> observed_value("AUCAAGCAAUAUUACGGGAG")
-0.571
>>> observed_value("GGACAGCAAUAUUACGGCUC")
0.377
>>> observed_value("GCUUAGCAAUAUUACGGACA")
-1.15
>>> observed_value("UAGAAGCAAUAUUACGGCCA")
-0.611
>>> observed_value("CAGGAGCAAUAUUACGAACU")
-3.19
>>> observed_value("ACGCAGCAAUAUUACGUUUG")
-2.69
>>> observed_value("CCCUAGCAAUAUUACGGUGC")
-2.88
>>> observed_value("GAACAGCAAUAUUACGGUAU")
-0.269
>>> observed_value("CCAAAGCAAUAUUACGCCAU")
-1.88
>>> observed_value("GCCGAGCAAUAUUACGUGAC")
-1.16
>>> observed_value("GGCGAGCAAUAUUACGGGAC")
-1.1
>>> observed_value("UAGGAGCAAUAUUACGAGUU")
-2.48
>>> observed_value("CGGUAGCAAUAUUACGCUUU")
-0.482
>>> observed_value("AUGUAGCAAUAUUACGCGCA")
-0.226
>>> observed_value("UUCUAGCAAUAUUACGAUAC")
-2.64
>>> observed_value("GGAGAGCAAUAUUACGAUCG")
-0.426
>>> observed_value("GAGGAGCAAUAUUACGUCUU")
-2.35
>>> observed_value("GCGCAGCAAUAUUACGCUGA")
-0.667
>>> observed_value("UGACAGCAAUAUUACGAUGU")
-2.28
>>> observed_value("UCCGAGCAAUAUUACGCGUC")
-1.53
>>> observed_value("GUGGAGCAAUAUUACGCUUC")
-3.69
>>> observed_value("GCCAAGCAAUAUUACGCACA")
-0.724
>>> observed_value("AGUUAGCAAUAUUACGUUUA")
-1.06
>>> observed_value("AACCAGCAAUAUUACGGACC")
-0.273
>>> observed_value("ACCUAGCAAUAUUACGCAGU")
-1.53
>>> observed_value("UAGGAGCAAUAUUACGAUCG")
-0.888
>>> observed_value("GAAAAGCAAUAUUACGCGCA")
-0.0235
>>> observed_value("AAUUAGCAAUAUUACGCUCC")
-0.0599
>>> observed_value("CUUGAGCAAUAUUACGGGGA")
-2.87
>>> observed_value("AACAAGCAAUAUUACGCUUC")
-2.75
>>> observed_value("AAUCAGCAAUAUUACGUGCA")
0.221
>>> observed_value("GACAAGCAAUAUUACGCUAA")
-2.11
>>> observed_value("CGUCAGCAAUAUUACGCUGG")
-2.14
>>> observed_value("CCACAGCAAUAUUACGUUCC")
-2.84
>>> observed_value("CUCUAGCAAUAUUACGGUAG")
-1.79
>>> observed_value("UAGCAGCAAUAUUACGAUCA")
0.169
>>> observed_value("UAGAAGCAAUAUUACGUUGG")
-1.55
>>> observed_value("AUGGAGCAAUAUUACGUGUG")
-2.69
>>> observed_value("AGGUAGCAAUAUUACGCGUG")
-0.784
>>> observed_value("UACUAGCAAUAUUACGGGCU")
-2.87
